Test system: M. mycetomatis strain mm55
Conditions: primary screen, metabolic activity vs growth control; 96 h, 2 µM; inhibitor
Where a name gives a salt, the structure may show the parent alone. Out of some 5,300 compounds screened, about 130 (2.5%) showed an effect of 50% or more. Many of the other results were omitted from the sample, so strong results are more common in it than they were.
Metric: % viability

For M. mycetomatis strain mm55, provide % viability of Cc1cc(CCC[C@H](CC(=O)NO)C(=O)N[C@H](C(=O)N[C@H](C)c2ccccc2)C(C)(C)C)ccc1-c1ccccc1 [ONC0002525, uk356618] please. 62.33%

For M. mycetomatis strain mm55, provide % viability of COc1ccc(CCCOC(Cn2ccnc2)c2ccc(OC)cc2)cc1 (centres unmarked) [ONC0000065, skf96365] please. 143.6%

For M. mycetomatis strain mm55, provide % viability of C=C[C@H]1C[N@@]2CC[C@H]1C[C@@H]2[C@@H](O)c1ccnc2ccc(OC)cc12 [ONC0003347, quinidine gluconate] please. 101.1%

For M. mycetomatis strain mm55, provide % viability of N[C@H](CSC(c1ccccc1)(c1ccccc1)c1ccccc1)C(=O)O [ONC0001742, strityllcysteine] please. 48.39%

For M. mycetomatis strain mm55, provide % viability of CC(C)(N)CC12CC3CC(CC(C3)C1)C2 [ONC0004056, somantadine] please. 120.7%

For M. mycetomatis strain mm55, provide % viability of O=C(O)C=C1NN(Cc2nc3cc(C(F)(F)F)ccc3s2)C(=O)c2ccccc21 [ONC0005526, zopolrestat] please. 123.5%

For M. mycetomatis strain mm55, provide % viability of CCS(=O)(=O)N(C)[C@H]1c2cc(C#N)ccc2OC(C)(C)[C@@H]1O [ONC0002693, chromanol293b3r4s] please. 103.9%

For M. mycetomatis strain mm55, provide % viability of C[C@]12CC[C@@H]3c4ccc(O)cc4CC[C@H]3[C@@H]1CC[C@@H]2OC(=O)CCC1CCCC1 [ONC0000738, estradiol cypionate] please. 84.11%

For M. mycetomatis strain mm55, provide % viability of CC1(C)S[C@@H]2C(N3C(=O)[C@@H](c4ccccc4)NC3(C)C)C(=O)N2[C@H]1C(=O)O (some centres unmarked) [ONC0000520, hetacillin potassium] please. 62.89%

For M. mycetomatis strain mm55, provide % viability of O=C(O)c1ccccn1 [ONC0003765, picolinicacid] please. 105.8%

For M. mycetomatis strain mm55, provide % viability of C=C1c2cccc(O)c2C(=O)C2C(=O)[C@]3(O)C(=O)C(C(N)=O)C(=O)[C@@H](N(C)C)[C@@H]3[C@@H](O)[C@H]12 (some centres unmarked) [ONC0000687, methacycline hydrochloride] please. 124.6%
